experiment: Bioavailability in rat (Sprague-Dawley) (female); type: ADME, organism-based; conditions: female, Sprague-Dawley, in vivo
Value type: bioavailability (%)

The examples below pair each entry with its known result.
INSERT INTO assay_data (line_notation, uom, val) VALUES
  ('Oc1ccc([C@H]2Sc3cc(O)ccc3O[C@H]2c2ccc(OCCN3CCCCC3)cc2)cc1', '%', 62),
  ('Oc1ccc([C@@H]2Sc3c(ccc(O)c3F)O[C@@H]2c2ccc(OCCN3CCCCC3)cc2)cc1', '%', 22),
  ('Oc1ccc([C@@H]2Sc3c(F)cc(O)cc3O[C@@H]2c2ccc(OCCN3CCCCC3)cc2)cc1', '%', 4.4);

[A] Oc1ccc([C@H]2Sc3c(ccc(O)c3F)O[C@H]2c2ccc(OCCN3CCCCC3)cc2)cc1
[B] Cc1cc(O)cc2c1S[C@@H](c1ccc(O)cc1)[C@@H](c1ccc(OCCN3CCCCC3)cc1)O2
[C] Oc1ccc([C@@H]2Sc3ccc(O)cc3O[C@@H]2c2ccc(OCCN3CCCCC3)cc2)cc1
[in] List the 3 entries from lowest bioavailability to highest bioavailability value. Answer format: the labels, in the requested order.
[out] C, B, A
